system: SARS-CoV-2 virus; experiment: microbe, parasite or virus in culture; conditions: Severe acute respiratory syndrome coronavirus 2, Vero C1008, read-out: EC50 Experiment 3, MOI: 0.005 (50 PFU); Vero-E6
ENDPOINT: EC50 (µM)
Answers are plain numbers, in µM.

Give the measured EC50 of CCN(CC)CCCC(C)Nc1ccnc2cc(Cl)ccc12 (stereo not shown) .
2.34

###

tested on: SARS-CoV-2 virus; assay: microbe, parasite or virus in culture; conditions: Severe acute respiratory syndrome coronavirus 2, Vero C1008, read-out: EC50 Experiment 1, MOI: 0.005 (50 PFU); Vero-E6
ENDPOINT: pEC50
Give bare numbers, as −log10 of the molar value.

Give the measured pEC50 of CCN(CC)CCCC(C)Nc1ccnc2cc(Cl)ccc12 (stereo not shown) [Chloroquine] .
5.77
